target: MCH receptor (Homo sapiens); test: High throughput functional screening FLIPR/FDSS6000 (intracellular Ca2+ evoked by MCH); type: cell-based; conditions: FLIPR/FDSS, antagonist activity vs 50 nM MCH; class by percent of control at 10^−7 M or IC50; read-out: class
Please respond with reported IC50 for every item in the list.

MCH receptor (Homo sapiens) data for "COc1nc(N[C@H]2CC[C@@H](NC(=O)c3ccc(Cl)cc3)CC2)ncc1C" ; its IC50: > 200 nM

MCH receptor (Homo sapiens) data for "COc1nc(N[C@H]2CC[C@@H](NC(=O)c3cc(Cl)cc(Cl)c3)CC2)ncc1C" ; its IC50: > 200 nM

MCH receptor (Homo sapiens) data for "COc1nc(N[C@H]2CC[C@@H](NC(=O)c3ccc(Cl)c(Cl)c3)CC2)ncc1C" ; its IC50: 50 to 200 nM

MCH receptor (Homo sapiens) data for "Cc1cnc(N[C@H]2CC[C@@H](NC(=O)N(C)c3ccc(Cl)cc3Cl)CC2)nc1N(C)C" ; its IC50: < 50 nM

MCH receptor (Homo sapiens) data for "Cc1cc(N(C)C)nc(N[C@H]2CC[C@@H](NC(=O)c3cccnc3S(=O)(=O)c3cccc(Br)c3)CC2)n1" ; its IC50: 50 to 200 nM

MCH receptor (Homo sapiens) data for "Cc1cc(N[C@H]2CC[C@@H](C(=O)N[C@@H](C)c3cc(C(F)(F)F)cc(C(F)(F)F)c3)CC2)nc2ccccc12" ; its IC50: 50 to 200 nM

MCH receptor (Homo sapiens) data for "COc1cccc(S(=O)(=O)c2ncccc2C(=O)N[C@H]2CC[C@@H](Nc3nc(C)cc(N(C)C)n3)CC2)c1" ; its IC50: > 200 nM
